Every entry's value here was drawn from the nanobody polyreactivity screen of Harvey et al. (2022).

test: yeast display, Sf9 membrane polyspecificity reagent, FACS + sequencing; frameworks hold sequencing errors
measuredProperty: polyreactivity (PSR sort gate)

QVQLVESGGGLVQAGGSLRLSCAASGSIFTRNVMGWSRQAPGKERELVAAITGSGGRTYYADSVKGRFTISRDNAKNTVYLQMNSLKPEDTAVYYCAKSRPGTYDYWGQGTQVTVSS; high polyreactivity
QVQLVESGGGLVQAGGSLRLSCAASGSIFVNNAMGWYRQAPGKERELVAAITCSTGSTYYADSVKGRFTISRDNAKNTVYLQMNSLKPEDTAVYYCAATSYTATWRYYYWGQGTQVTVSS; high polyreactivity
QVQLVESGGGLVQAGGSLRLSCAASGSIFQAYAMGWYRQAPGKERELVASISQSGDSTYYADSVKGRFTISRDNAKNTVYLQMNSLNPVDTAVYYCAAVQYGHRRGRVSVRRRLDYWGQGTQVTVSS; low polyreactivity
QVQLVESGGGLVQAGGSLRLSCAASGSIFYGYAMGWYRQAPGKERELVAAISRGGSTYADSVKGRFTISRDNAKNTVYLQMNSLKPEDTAVYYCARRYWNCPLRGWYGYWGQGTQVTVSS; high polyreactivity
QVQLVESGGGLVQAGGSLRLSCAASGRTFVPYAMGWYRQAPGKERELVAAISARGSSTYYADSVKGRFTISRDNAKNTVYLQMNSLKPEDTAVYYCNAVGARVASATGMEYWGQGTQVTVSS; high polyreactivity
QVQLVESGGGLVQAGGSLRLSCAASGRIFPFNAMGWYRQAPGKERELVAAITSSGGRTYYADSVKGRFTISRDNAKNTVYLQMNSLKPEDTAVYYCAATLVRRARSGPMGYWGQGTQVTVSS; high polyreactivity
QVQLVESGGGLVQAGGSLRLSCAASGRTFYRNAMGWSRQAPGKERELVAAISYRGGRTYYADSVKGRFTISRDNAKNTVYLQMNSLKPEDTAVYYCAADLRTRVPYDYWGQGTQVTVSS; high polyreactivity
QVQLVESGGGLVQAGGSLRLSCAASGSTFYAYAMGWYRQAPGKERELVAAIRISGTSTYYADSVKGRFTISRDNAKNTVYLQMNSLKPEDSAVYYCNTLATYVAHNDYWGQGTQVTVSS; high polyreactivity
QVQLVESGGGLVQAGGSLRLSSAASGRISDFYTMGWYRQAPGKERELVAVIRTSGGRTNYADSVKGRFTISRDNAKNTVYLQMNSLKPEDTAVYYCAARVVRYGYKYYYWGQGTQVTVSS; low polyreactivity
QVQLVDSGGGLVQAGGSLRLSCAASGFIFHRYAMGWYRQAPGKERELVAAISSSGGSTYYADSVKGRFTISRDNAKNTVYLQMNSLKPEDTAVYYCAAYYHDGYEFNYWGQGTQLTVSS; high polyreactivity
QVQLVESGGGLVQAGGSLRLSCAASGSIFSSYAMGWYRQAPGKERELVAAITSGGSTYYADSVKGRFTISRDNAKNNVYLQMNSLKPEDTAVYYCAARQVRTSKLHMGYWGQGTQVTVSS; low polyreactivity
QVQLVESGGGLVQAGGSLRLSCAASGSTFFEYTMGWYRQAPGKEREFVADIRGRDGSTSYADSVKGRFTISRDNAKNTVYLQMKSLKPEDTAVYYCGADVSDWWSFGNDSWGHGTQVTVSS; low polyreactivity
QVQLVESGGGLVQAGGTLRLSCAASGGIFLYYAMGWYRQAPGKERELVATISSGGSTKYADSVKGRFTISRDNAMNTVYLQMNSLKPEDTAVYYCNKVFPNLYIYVVRGLIEMDYWGQGTQVTVSS; low polyreactivity
QVQLVESGGGLVQAGGSLRLSCAASGSTFILYAMGWYRQAPGKERELVAAITSRGGSTYYADSVKGRFTISRDNAKNTVYLQMNSLKPEDTAVYYCAADNGYIGPKPYFLAYPVGYDSWGQGTQVTVSS; low polyreactivity
QVQLEESGGGLVQAGGSLRLSCAASGRIFGVNAMGWYRQAPGKERELVAAIRYSGGSTYYADSVKGRFTISRDNAKNTVYLQMNSLKPEDTAVYYCARDVWNYWDGVFQYYSYDFDYWGQGTQVTVSS; low polyreactivity
QVQLVESGGGLDQAGGSLRLSCAASVSTFDAYAMVWSTQAPGQERELVAAISSSAASTSYADSVKGRFTISRDNAKNTVYVQMNSLKPEDTAFYYCAARPYRRPWYRGRYYYWGQGTQVTVSS; high polyreactivity
QVQLVESGGGLVQAGGILLLSCAASGGTFENYAMGWYIQAPGKERELVAAISSGGSTNYADSVKGRFTISRDNAKNTVYLQMNRLKPEDTAVYYCARYRVWGSNGHKLFHYDYWGQGTQVTVSS; low polyreactivity
QVQLVESGGGLVQAGGSLRLSCAASGRTFYSNTMGWYRQAPGKEREFVAAIPSIVGSTYYADSVKGRFTISRDNAKNTVYLQMNSLKPEDTAVYYCATRYVVIEYDYWGQGTQVTVSS; low polyreactivity
QVQLVDSGGGLVQAGGSLRLSCAPSGFTIYKYVMGWDRQAPGKDREVVAAITTCGGSTYYADSVKGRFTISRDYAKNTVYLQMNSLKPEHTAVDYCNARSLHTSEGDYWGQGTQVTVSS; low polyreactivity
QVQLVESGGGLVQAGGSLRLSCSASGSIFNYYTMGWDRQAPGKERELVAVITWSDDSTYYADSVKGRFTISRDNAKNTVYLQMNSLKPEDTAVYYCNARSWGWYRIAYGYWGQGTQVTVSS; low polyreactivity
QVQLVESGGGLVQAGGSLRLSCAASGSTFRDNVMGWYRQAPGKEWEFVAAISSSVGSTYYADSVKGRFTISRDNAKNTVYLQMNSLKPEDTAVYYCAARLWPSYLSYGKTGDYWGQGTQVTVSS; high polyreactivity

* * *

assay: yeast display, Sf9 membrane polyspecificity reagent, FACS + sequencing; frameworks hold sequencing errors
measuredProperty: polyreactivity (PSR sort gate)

QVQLVESGGALVQAGGSLRLSCAASGRTFGRYAMGWYRQAPGKEREFVASISRRGGTTYYADSVKGRFTLSRDNAKNTVYLQMNSLKPEDTGVYYCAKEGSPTNPWYGSYEYDYWGQGTQVTVSS; low polyreactivity
QVQLVDSGGGLVQAGGSLRLSCAASGRIFSENAMVWYRQSRGKERELVAAITANGGDTYYADSVKGRFTISRDNAKNTVYLQMNSLKPEDTAVYYCAAETGGLGGDYWGQGTQVTVSS; low polyreactivity
QVQLVESGGGLVQAGGSLRLSCAASGRTFGSYAMGWYRQAPGKEREFVAAIYYGGGRTYYADSVKGRFSISRDNAKNTVYLQMNSLKAVDTAVYYCAADGVYRYNYPYLYTYDYWGQGTQVTVSS; low polyreactivity

* * *

assay: yeast display, Sf9 membrane polyspecificity reagent, FACS + sequencing; frameworks hold sequencing errors
measuredProperty: polyreactivity (PSR sort gate)

QVQLVESGGGLVQAGGSLRLSCAASGFTFDTYAMGWSRQAPGKERELVAAISSSGGSTYYADSVKGRFTISRDNAKNTVYLQMNSLKPEDTAVYYCNAYYRYSRGYDYWGQGTQVTVSS; high polyreactivity
QVQLVESGGGIVQAGGSLRLISAASGFIFAIYAMGWYRQAPGNERELVAGISSSGSTTRYADSVKVRFTISRDYAKYTVYLQLISLIPEDTAVYDCAADGYPGDDYWGQGTQVTVSS; high polyreactivity
QVQLVESGGGLVQAGGSLRLSCAASGSIFRYNAMGWSRQAPGKEREFVAAISYSGGRTYYADSVKGRFTISRDNAKNTVYLQMNSLNPEDTAVYYCNAQYASGRSYFFYWHRYDYWGQGTQVTVSS; high polyreactivity
QVQLVESGGGLVQAGGSLRLSCAASVSPFWLNAMGWYRPAPGKEREFVAAITVGGGSTYYADSVKGRFTISRDNAKNTDYLQMNSLKPEDTAVYYCAALYRFWYPGNSYDYWGQGTQVTVSS; high polyreactivity

* * *

experiment: yeast display, Sf9 membrane polyspecificity reagent, FACS + sequencing; frameworks hold sequencing errors
measuredProperty: polyreactivity (PSR sort gate)

QVQLVESGGGLVQAGGSLRLSCAASGLTFVPNAMGWSRQAPGKERELVAGITSAGSTYYADSVKGRFTISRDNAKNTVYLQMNSLKPEDSAVYYCAKQFYRGFRYGYWGQGTQVTVSS; high polyreactivity
QVQLVESGGGLVQAGGSLRLSCAASGSIFAHNAMGWSRQAPGKESEMVAAISSGGSTNYADSVKGRFTISRDNAKNTVYLQMNSLKPEDTAVDYCAKSIDGWYWRRRRYDYWGQGTQVTVSS; low polyreactivity
QVQLVESGGGLVQAGGSLRLSCAASGSTFYFNAMGWYRQAPGKERELVAAIDWSGGSTYYADSVKGRFTISRDNAKNTVYLQMNSLKPEDTAVYYCNADNYEWGNNYGYWGQGTQVTVSS; low polyreactivity
QVQLVDSGGGLVQAGGSLRLSCAASGRTFYRNAMGWYRQAPGKVRELVAGISSGGFTYYADSVKGRFTITRDNAKNTFYLQMNSLKPEDTPVYYCAASAWSGYWFDYWGQGTQVTVSS; high polyreactivity
QVQLVESGGGLVQAGGSLRLSCAASGSIFYDNAMGWYRQAPGKERELVATIRGGGNTYYADSVKGRFTISRDNAKNTVYLQMNSLKPEDTAVYYCAKQSDFPGVPLVYGVYGYDYWGQGTQVTVSS; low polyreactivity
QVQLVESGGGLVQAGGSLRLSCAASGSIFPVYAMGWYRQAPGKERELVAAINSSGGTTYYADSVKGRFTISRDNAKNTVYLQMNSLKPEDTAVYYCAAEISTASYFAKTYDYWGQGTQVTVSS; low polyreactivity
QVQLVESGGGLVQAGGSLRLSCAASGRTLAPYAMGWYRQAPGKARELVADIDRGGGSTYYADSVKGSFTISRDNAKNTVYLQMNSLKPEDTAVYYCNVDEPGVLVAYSLDFWGQGSQVTVSS; low polyreactivity
QVQLVESGGGLVQAGGSLRLSCAASGSNFNRYAMGWYRQAPGKERELVAAISRSGGRTYYADSVKGRFTISRDNAKNTVYLQMNSLKPEDTAVYYCAAGGRWFYIDDDWGQGTQVTVSS; high polyreactivity
QVQLVESGGGLVQAGGSLRLSCAASGRTFSGYAMGWYRQAPGKEREFVAAITSSGSSTYYADSVKWRFTISRVIAKNTVYLQMNSLKPEDTAVYYCAATPQAHSERYYYQRKYDYWGQGTQVTVSS; low polyreactivity
QVQLVESGGGLVQAGGSLRLRCAASGIIFYRYAMGWYRQAPGKERELVAAINTSGGRTYYADSVKGRFTISRDNAKNTVYLQMNSLKPEDTAVYYCAAYYSPVGFQYDYWGQGTQVTVSS; high polyreactivity
QVQLVETGGGLVQAGGSLRLSCAASVRTFHGYAMGWYRQAPGKERELVAAITCTGGRTYYADSVKGRFTISRDNAKNTVYLQMNSLKPEDTAVYYCGARPWIKSGYCGQGTQVTVSS; high polyreactivity
